FYI, the data here is from patent US7208500B2.

# Tested on: human umbilical vein endothelial cells (HUVEC)
# Experiment Notes: HUVEC + VEGF proliferation assay
# Type: cell-based
# Particulars: VEGF-stimulated proliferation, final VEGF 6 ng/mL, 72 hours, MTT
pIC50: −log10 of the molar value.
Property Measured: pIC50

Worked examples, 5 compounds total:
-- ask Given the compound O=C(Cc1ccc(Oc2ccnc3cc(C(=O)N4CCC4)sc23)cc1)Nc1ccc(F)cn1 [Example 29] , write its reported pIC50.
-- reply < 8.00

-- ask Name the recorded pIC50 of the compound listed here: O=C(Cc1ccc(Oc2ccnc3cc(C(=O)N4CCC4)sc23)cc1)Nc1ccc2[nH]ncc2c1 [Example 36]
-- reply < 8.00

-- ask State its pIC50 for this compound: Cc1cc(C)nc(NC(=O)Cc2ccc(Oc3ccnc4cc(C(=O)N5CCC5)sc34)cc2Cl)c1 [Example 49]
-- reply 8.00 to 9.00

-- ask Tell us which pIC50 value is on record for Cc1cc(NC(=O)Cc2ccc(Oc3ccnc4cc(C(=O)N5CCC5)sc34)cc2Cl)on1 [Example 53]
-- reply 8.00 to 9.00

-- ask Could you please provide reported pIC50 for Cc1ccnc(NC(=O)Cc2ccc(Oc3ccnc4cc(C(=O)N5CC[C@@H](O)C5)sc34)cc2)c1 [Example 15] ? Thanks!
-- reply > 9.00

---
-- ask Quick one: give measured pIC50 for Cc1cc(C)nc(NC(=O)Cc2ccc(Oc3ccnc4cc(C(=O)N(C)CCN(C)C)sc34)cc2)c1 [Example 6]
-- reply < 8.00

-- ask For the compound CCCCNC(=O)Oc1ccc(Oc2ccnc3cc(C(=O)N4CCC4)sc23)cc1 [Example 86] , report pIC50.
-- reply > 9.00

-- ask Look up pIC50 of O=C(Cc1ccc(Oc2ccnc3cc(C(=O)N4CCC4)sc23)cc1Cl)Nc1ccc(Cl)cn1 [Example 50] and report it.
-- reply < 8.00
